- Tested on: HeLa
- assay method text: Primary qHTS to identify gynecologic anti-cancer compounds using libraries of approved drugs and bioactive compounds (AID 1345084); also: nearly all actives have a fitted effect of over 55% in size
- conditions used: Gynecologic cancer cell panel viability, ATPlite luminescence, 48 h; series mostly up to 57.5 µM
Inconclusive results are not listed. Calls of active or inactive are those of the source. Calls follow the shape of the dose curve; as a rule, active = well fitted cell-killing curve with a large enough effect; inconclusive = small, poorly fitted or top-dose-only effect, or effect the other way; inactive = flat fitted curve, though single readings scatter.
quantity name: outcome

Example results:
                                   molecule  reported_result
0  NS(=O)(=O)c1cc2c(cc1Cl)NC(CC1CCCC1)NS2(=O)=O (stereo unspecified)         inactive
1              COc1cc(C)nc(-n2nc(C)cc2OC)n1         inactive
2  O=C1c2cccc3c2[C@H](CCC3)CN1[C@@H]1CN2CCC1CC2         inactive
3  CC1CCc2c(N3CCC(O)CC3)c(F)cc3c(=O)c(C(=O)O)cn1c23 (stereo unspecified)         inactive

Data request: What does the record list as outcome for "NS(=O)(=O)c1ccc(Cl)c(S(N)(=O)=O)c1" ?
Data returned: inactive

Data request: Item "CCOC(=O)Nc1ccc2c(c1)N(C(=O)CCN1CCOCC1)c1ccccc1S2" has what recorded outcome?
Data returned: inactive

All values here come from PubChem BioAssay (NCATS).
